Test system: LOX IMVI melanoma
Test: NCI-60 one-dose screen, 48 h
Conditions: 10 µM unless noted
The panel holds about 83,000 compounds, 20% with a hit somewhere; the sample as a whole holds those more often. The source made the active and inactive calls. How the source made its calls: active means growth percent below 10; inactive means the rest.
Pick one and only one: t = active, f = inactive

C#CCOc1ccc(C2=NN(CC3CC3)C3N=C(Cl)c4ncn(CC5CC5)c4N23)cc1OCC#C (stereo not given)	f

Qu. Hi team, can someone confirm the assay call for "NC(=O)c1c(NC(=O)COC(=O)Cc2ccccc2F)sc2c1CCC2" ?
Ans. f

Qu. Hi team, can someone confirm the assay call for "Nc1ccc2c(c1)Cc1cc(NC(=O)C(F)(F)F)ccc1-2" ?
Ans. f

Qu. Hi team, can someone confirm the assay call for "CCOC(=O)c1ccc2nc(-c3c(C)nn(-c4ccccc4)c3N3CCOCC3)[nH]c2c1" ?
Ans. f

Qu. Hi team, can someone confirm the assay call for "CCOc1ccccc1/C=N\Nc1ccc(S(=O)(=O)c2ccc(N/N=C/c3ccccc3OCC)cc2)cc1" ?
Ans. f

Qu. Hi team, can someone confirm the assay call for "CNC(=O)c1cc(Oc2cccc3nc(NC(=O)Nc4cc(C(F)(F)F)cc(C(F)(F)F)c4)ccc23)ccn1" ?
Ans. f

Qu. Hi team, can someone confirm the assay call for N#CC1C(=O)NC(c2ccccc2[N+](=O)[O-])c2sc3c(F)cccc3c21 (stereo not given) ?
Ans. f

Qu. Hi team, can someone confirm the assay call for "CC(C)OC(=O)Nc1cc(F)ccc1F" ?
Ans. f

* * *

Tested on: A498 renal
Assay: NCI-60 one-dose screen, 48 h
Conditions: 10 µM unless noted
This is part of a sample that, as a whole, favours compounds with a hit. Of some 83,000 tested, about 20% had one in any assay. Activity calls are given as the source filed them. Rule for the calls: active = growth percent below 10; inactive = the rest.
Pick one and only one: active, inactive

Completed entries (count: 5):
Clc1ccc(/C=N/Nc2nc3ccccc3s2)c(Cl)c1	inactive
COc1cc2c(cc1OC(C)=O)C(=O)CCCC2	inactive
CC(C)C1=NOC(=O)C1=Cc1cn(-c2ccco2)nc1-c1ccccc1	inactive
CS(=O)(=O)c1cccnn1	inactive
CCOC(=O)COc1c(C)cc(SSc2cc(C)c(OCC(=O)OCC)c(C)c2)cc1C	inactive

Qu. Hi team, can someone confirm the assay call for "CC1(C)C(=O)/C(=C\c2cccnc2)C[C@]2(C)[C@H]3CC[C@@H]4[C@H]5[C@H](C(=O)/C=C/c6cccnc6)CC[C@]5(C(=O)O)CC[C@@]4(C)[C@]3(C)CC[C@@H]12" ?
Ans. active

Qu. Hi team, can someone confirm the assay call for "O=[N+]([O-])c1cc([N+](=O)[O-])c(C(F)(F)F)cc1NN=C(c1ccc(O)cc1)c1ccc(O)cc1" ?
Ans. inactive

Qu. Hi team, can someone confirm the assay call for "CC(=O)Nc1ccc(C=Nc2ccc3ccccc3c2)cc1" ?
Ans. inactive

Qu. Hi team, can someone confirm the assay call for "COc1ccc(C(=O)CSc2nnc(-c3cc(-c4ccccc4)nc4ccccc34)o2)cc1" ?
Ans. inactive

Qu. Hi team, can someone confirm the assay call for "CC(C)(C)c1cc(C(=O)Nc2ccc(C(=O)NCCN)cc2)cc(C(C)(C)C)c1" ?
Ans. inactive

* * *

System: MCF7 breast
Assay: NCI-60 one-dose screen, 48 h
Conditions: 10 µM unless noted
This is part of a sample that, as a whole, favours compounds with a hit. Of some 83,000 tested, about 20% had one in any assay. Calls of active or inactive are those of the source. How the source made its calls: active means growth percent below 10; inactive means the rest.
Pick one and only one: active, inactive

Completed entries (count: 10):
C=C(C)[C@@H]1CC[C@]2(C(=O)NCCNCCNCCN)CC[C@]3(C)[C@H](CC[C@@H]4[C@@]5(C)CC[C@H](O)C(C)(C)[C@@H]5CC[C@]43C)[C@@H]12	active
CCCCCCCCCCCCCCNC(=O)Nc1ccc(Cl)c(Cl)c1	inactive
CCOC(=O)COc1ccc2c(c1)O/C(=C\c1ccc(O)cc1)C2=O	inactive
O=C(O)c1cccc(CN2CCN(c3cc4c(cc3F)c(=O)c(C(=O)O)cn4C3CC3)CC2)c1O	inactive
C=CCc1nc2ccccc2s1	inactive
COc1ccc2[nH]c(C(=O)N3CCN(C(=O)OCc4ccc5c(Br)cc(Br)c(O)c5n4)CC3)cc2c1	active
CCOC(=O)C(c1ccccc1)N1C(=O)c2ccccc2C1=O (configuration not stated)	inactive
COc1cc2c(O)n(CCCN3CCOCC3)c3c4cnc5cccc(c(=O)c3c2cc1OC)c54	inactive
CC1(C)C(=O)/C(=C\c2cccnc2)C[C@]2(C)[C@H]3CC[C@@H]4[C@H]5[C@H](C(=O)/C=C/c6cccnc6)CC[C@]5(C(=O)O)CC[C@@]4(C)[C@]3(C)CC[C@@H]12	active
O=C(C[n+]1ccn(CC(OCc2ccc(Cl)cc2Cl)c2ccc(Cl)cc2Cl)c1)c1ccc(F)cc1 (configuration not stated)	active

Qu. Hi team, can someone confirm the assay call for "O=c1[nH]c(CN2CCN(c3cccc(Cl)c3)CC2)nc2cc(Cl)ccc12" ?
Ans. inactive

Qu. Hi team, can someone confirm the assay call for "Cc1cccc(C[C@H](NC(=O)Nc2ccc(Cl)cc2F)C(=O)N[C@@H]2C(=O)N3C[C@H](O)C[C@H]3C(=O)N3CCN(C)C[C@H]3C(=O)N[C@@H](C)C(=O)N3C[C@H](C)C[C@H]3C(=O)O[C@H]2C)c1" ?
Ans. inactive

Qu. Hi team, can someone confirm the assay call for "CCOC(=O)c1c[nH]n2c(=S)ncnc12" ?
Ans. inactive

Qu. Hi team, can someone confirm the assay call for "COc1ccc(OC)c([N+](=O)[O-])c1C(=O)CNC(C)=O" ?
Ans. inactive

Qu. Hi team, can someone confirm the assay call for C#CCOc1ccc(C2=NN(CC3CC3)C3N=C(Cl)c4ncn(CC5CC5)c4N23)cc1OCC#C (configuration not stated) ?
Ans. inactive

Qu. Hi team, can someone confirm the assay call for COc1ccc(C2CC(c3ccc4ccccc4c3)=NN2c2nc(O)c(C3=c4cc(OC)ccc4=NC3=O)s2)cc1 (configuration not stated) ?
Ans. active

Qu. Hi team, can someone confirm the assay call for "C#C[C@]1(O)CC[C@H]2[C@@H]3CC=C4c5nc(Nc6ccc(OC)cc6OC)sc5CC[C@]4(C)[C@H]3CC[C@@]21C" ?
Ans. active

Qu. Hi team, can someone confirm the assay call for "C[n+]1c2ccccc2nc2c(N)cc(N)cc21" ?
Ans. inactive

Qu. Hi team, can someone confirm the assay call for "COc1cc(C(=O)/C=C/c2c(-c3ccc(F)cc3)nc3sccn23)cc(OC)c1OC" ?
Ans. active

Qu. Hi team, can someone confirm the assay call for "COc1ncc(-c2ccc3nccc(C#CCCCCC(=O)NO)c3c2)cc1NS(=O)(=O)c1ccc(F)cc1F" ?
Ans. active

* * *

Below, each entry is listed alongside its reported growth.
System: A498 renal
Experiment: NCI-60 one-dose screen, 48 h (100 = growth as untreated, 0 = no growth, -100 = all killed)
Conditions: 10 µM unless noted
The panel holds about 83,000 compounds, 20% with a hit somewhere; the sample as a whole holds those more often. Activity calls are given as the source filed them. Rule for the calls: active = growth percent below 10; inactive = the rest.

COc1ccc(C(=O)c2nccc3cc(OC)c(OC)cc23)cc1OC	64.6% (inactive)
CCN(CC)c1ccc2cc(NC(=O)OCCNC(=O)CCNC(=O)[C@H](CC(C)C)NC(=O)C(C)(C)NC(=O)C(C)(C)NC(=O)[C@H](CC(C)C)NC(=O)CCNC(=O)C(C)(C)NC(=O)[C@H](CC(C)C)NC(=O)CCNC(=O)[C@@](C)(CC)NC(=O)[C@H](C)NC(=O)CCNC(=O)C(C)(C)NC(=O)[C@H](C)NC(=O)[C@@H]3CCCN3C(=O)[C@@](C)(CC)NC(=O)[C@H](Cc3ccccc3)NC(=O)C3CCCN3C(=O)C(C)(C)NC(=O)C3CCCN3C(=O)C(C)(C)NC(C)=O)c(=O)oc2c1 (stereo partly specified)	-98.5% (active)
O=C(NCCCCCCCNC(=O)OCc1ccc2c(Cl)cc(Cl)c(O)c2n1)OCc1ccc2c(Cl)cc(Cl)c(O)c2n1	-80.6% (active)
Cc1cnc(N)nc1OCCNC(=O)c1cccc(-c2ccc(S(=O)(=O)Nc3ccc4c(c3)N(C(=O)C3CC3)CCC4)cc2)c1	40.2% (inactive)
Nc1cc(C(=O)O)[nH]c(=S)n1	101% (inactive)

// below: growth requested for another compound
Qu. Returns the measured growth for the input compound. Input: CCOC(=O)c1nn(C2CCCCO2)c2ccc(NC(=O)CN3CCOCC3)cc12 (stereo unspecified)
Ans. 99.9% (inactive)

* * *

System: MALME-3M melanoma
Experiment: NCI-60 one-dose screen, 48 h (100 = growth as untreated, 0 = no growth, -100 = all killed)
Conditions: 10 µM unless noted
This is part of a sample that, as a whole, favours compounds with a hit. Of some 83,000 tested, about 20% had one in any assay. Active and inactive are the calls of the source. Rule for the calls: active = growth percent below 10; inactive = the rest.
Below, each entry is listed alongside its reported growth.

// below: answered compounds
Nc1nnc(CSc2nnc3n(Cc4ccccc4)c(=O)c4c5c(sc4n23)CCCC5)s1	116% (inactive)
O=C(CCN1CCCCC1)c1ccc(Cl)cc1	105% (inactive)
CCCCCn1c(C)cc(/C=C\c2ccc3cc(C)ccc3[n+]2C)c1C	-67.5% (active)
COc1cc2c(O)n(CCCN3CCOCC3)c3c4cnc5cccc(c(=O)c3c2cc1OC)c54	67.4% (inactive)

Qu. Returns the measured growth for the input compound. Input: CCC(C)[C@H](NC(=O)NC(=O)NC(=O)CI)C(=O)OC (stereo not given in full)
Ans. -44.9% (active)
